- tested system: UniProtKB Q9NYK1
- experiment description: TLR7 inhibition reporter assay (HEK-Blue cells, secreted embryonic alkaline phosphatase reporter)
- condition set: HEK-Blue cells overexpressing human TLR7, stimulated with gardiquimod 7.5 μM; read-out: TLR 7 IC50
Assign pIC50 to each entry below.
Answers are plain numbers, as −log10 of the molar value.

Cn1c(-c2ccc(S(C)(=O)=O)cc2)nc2c(F)cc(-c3ccc(CN4CCC(N5CCCC5)CC4)cc3)cc21 [Example 409]
5.82

Could I get pIC50 for every one of these entries?
1. Cc1cc(C2CCN(C3CCN(CC(C)C)CC3)CC2)cc2[nH]c(-c3ccc(S(C)(=O)=O)cc3)nc12 [Example 58, tris(2,2,2-trifluoroacetate)]
2. COc1ccc(-c2nc3ccc(C4CCN(C5CCN(C(C)C)CC5)CC4)cc3n2C(C)C)cc1OC [Example 3]
3. COc1ccc(-c2nc3cc(C4CCN(C5CCN(CC(C)C)CC5)CC4)c(C(F)(F)F)cc3[nH]2)cc1OC [Example 42]
4. Cn1c(-c2ccc(S(C)(=O)=O)cc2)nc2ccc(C3CCN(C4CCN(CC5CC5)CC4)CC3)c(F)c21 [Example 261]
5. Cn1c(-c2ccc(S(C)(=O)=O)cc2)nc2ccc(C3CCN(C4CCN(C5CCOCC5)CC4)CC3)c(F)c21 [Example 264]

1: 5.51; 2: 6.55; 3: 4.49; 4: 5.10; 5: 5.64

====

Assign pIC50 to each entry below.
- tested system: human TLR8 (Homo sapiens)
- experiment description: TLR8 inhibition reporter assay (HEK-Blue cells, secreted embryonic alkaline phosphatase reporter)
- condition set: HEK-Blue cells overexpressing human TLR8, stimulated with R848 15.9 μM; read-out: TLR 8 IC50
pIC50: −log10 of the molar value.

Below, each entry is followed by its recorded pIC50 result.
CC(C)CN1C2CCC1CC(N1CCC(c3ccc4nc(-c5ccc(S(C)(=O)=O)cc5)n(C)c4c3F)CC1)C2 (single isomer, unassigned) [Example 267]
< 4.30
CCn1c(-c2ccc(OC)c(OC)c2)nc2cc(C3CCN(C4CCN(C(C)C)CC4)CC3)ccc21 (single isomer, unassigned)
5.89

# evaluate next
Give the reported pIC50 for Cn1c(-c2ccc(S(C)(=O)=O)cc2)nc2c(F)cc(C3CCN(C4CCCN(C5COC5)CC4)CC3)cc21 (single isomer, unassigned) [Example 108] (system: human TLR8 (Homo sapiens)). < 4.30

====

- tested system: human TLR8 (Homo sapiens)
- Sequence (Q9NR97 27-1041): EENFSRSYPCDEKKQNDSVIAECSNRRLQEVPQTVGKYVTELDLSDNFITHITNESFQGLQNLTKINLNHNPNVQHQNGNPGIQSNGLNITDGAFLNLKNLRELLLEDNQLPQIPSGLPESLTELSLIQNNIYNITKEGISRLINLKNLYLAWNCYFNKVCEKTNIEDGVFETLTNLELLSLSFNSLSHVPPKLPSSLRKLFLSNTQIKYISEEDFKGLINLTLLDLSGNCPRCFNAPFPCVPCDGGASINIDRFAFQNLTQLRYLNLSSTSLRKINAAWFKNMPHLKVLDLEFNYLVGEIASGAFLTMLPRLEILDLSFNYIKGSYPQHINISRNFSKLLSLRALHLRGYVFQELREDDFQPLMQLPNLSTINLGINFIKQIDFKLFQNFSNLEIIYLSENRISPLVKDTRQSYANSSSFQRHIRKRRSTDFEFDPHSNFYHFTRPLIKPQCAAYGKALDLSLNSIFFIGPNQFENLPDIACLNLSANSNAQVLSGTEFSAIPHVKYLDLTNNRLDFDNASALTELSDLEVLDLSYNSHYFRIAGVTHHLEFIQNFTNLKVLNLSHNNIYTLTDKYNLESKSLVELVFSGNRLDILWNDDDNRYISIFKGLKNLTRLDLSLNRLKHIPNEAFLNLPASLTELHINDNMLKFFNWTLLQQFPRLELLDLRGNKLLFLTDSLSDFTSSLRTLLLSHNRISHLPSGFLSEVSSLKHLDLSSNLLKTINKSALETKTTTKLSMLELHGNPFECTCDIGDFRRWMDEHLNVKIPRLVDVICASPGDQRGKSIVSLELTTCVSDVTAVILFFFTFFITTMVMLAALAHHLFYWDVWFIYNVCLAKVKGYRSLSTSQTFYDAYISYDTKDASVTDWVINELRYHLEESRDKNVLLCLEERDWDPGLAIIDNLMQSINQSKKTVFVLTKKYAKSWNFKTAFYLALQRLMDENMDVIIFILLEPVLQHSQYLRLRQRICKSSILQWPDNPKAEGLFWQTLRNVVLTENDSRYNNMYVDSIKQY
- experiment description: TLR8 inhibition reporter assay (HEK-Blue cells, secreted embryonic alkaline phosphatase reporter)
- condition set: HEK-Blue cells overexpressing human TLR8, stimulated with R848 15.9 μM; read-out: TLR 8 IC50
- Text: TLR7/8/9 Inhibition Reporter Assays HEK-Blue™-cells (Invivogen) overexpressing human TLR7, TLR8 or TLR9 receptors were used for screening inhibitors of these receptors using an inducible SLAP (secreted embryonic alkaline phosphatase) reporter gene under the control of the […] minimal promoter fused to five NF-κB and AP-1-binding sites. […]
pIC50: −log10 of the molar value.
quantity kind: pIC50

Cc1cc(-c2ccc(CN3CC4(C3)CN(C(C)C)C4)c(F)c2)cc2c1nc(-c1ccc(S(C)(=O)=O)cc1)n2C
5.14
COc1ccc(-c2nc3ccc(C4CCN(C5CCN(C(C)C)CC5)CC4)cc3[nH]2)cc1OC
< 4.30

Could I get pIC50 for every one of these entries?
1. Cn1c(-c2ccc(S(C)(=O)=O)cc2)nc2ccc(C3CCN(C4CC5CCC(C4)N5C4CCOCC4)CC3)c(F)c21 (stereo not shown) [Example 275]
2. Cn1c(-c2ccc(S(C)(=O)=O)cc2)nc2c(F)c(C3CCN(C4CC5CCC(C4)N5C4CCOCC4)CC3)ccc21 (stereo not shown) [Example 198]

1: < 4.30; 2: < 4.30

====

- tested system: human TLR9 (Homo sapiens, UniProt Q9NR96)
- Construct: host or cells: HEK-Blue cells (HEK293-derived reporter line)
- experiment description: TLR9 inhibition reporter assay (HEK-Blue cells, secreted embryonic alkaline phosphatase reporter)
- Format: cell-based
- condition set: HEK-Blue cells overexpressing human TLR9, stimulated with ODN2006 5 nM; read-out: TLR 9 IC50
pIC50: −log10 of the molar value.
Tag: yes if measured pIC50 is not below 7, no if it is.

COCCN1CCC(N2CCC(c3cc4nc(-c5ccc(S(C)(=O)=O)cc5)n(C)c4cc3F)CC2)CC1
no
COc1ccc(-c2nc3ccc(C4CCN(C5CCN(C(C)C)CC5)CC4)c(F)c3[nH]2)cc1OC
no
CN(C)C1CCN(Cc2ccc(-c3ccc4nc(-c5cccc(F)c5)n(C)c4c3)cc2)CC1
no

Now turn to the next compound.
Decide: pIC50 of `COc1ccc(-c2nc3ccc(C4CCN(C5CCN(CC(C)C)CC5)CC4)cc3[nH]2)cc1OC` >= 7? yes

====

Assign pIC50 to each entry below.
- tested system: human TLR7 (Homo sapiens, UniProt Q9NYK1)
- Sequence (Q9NYK1 27-1049): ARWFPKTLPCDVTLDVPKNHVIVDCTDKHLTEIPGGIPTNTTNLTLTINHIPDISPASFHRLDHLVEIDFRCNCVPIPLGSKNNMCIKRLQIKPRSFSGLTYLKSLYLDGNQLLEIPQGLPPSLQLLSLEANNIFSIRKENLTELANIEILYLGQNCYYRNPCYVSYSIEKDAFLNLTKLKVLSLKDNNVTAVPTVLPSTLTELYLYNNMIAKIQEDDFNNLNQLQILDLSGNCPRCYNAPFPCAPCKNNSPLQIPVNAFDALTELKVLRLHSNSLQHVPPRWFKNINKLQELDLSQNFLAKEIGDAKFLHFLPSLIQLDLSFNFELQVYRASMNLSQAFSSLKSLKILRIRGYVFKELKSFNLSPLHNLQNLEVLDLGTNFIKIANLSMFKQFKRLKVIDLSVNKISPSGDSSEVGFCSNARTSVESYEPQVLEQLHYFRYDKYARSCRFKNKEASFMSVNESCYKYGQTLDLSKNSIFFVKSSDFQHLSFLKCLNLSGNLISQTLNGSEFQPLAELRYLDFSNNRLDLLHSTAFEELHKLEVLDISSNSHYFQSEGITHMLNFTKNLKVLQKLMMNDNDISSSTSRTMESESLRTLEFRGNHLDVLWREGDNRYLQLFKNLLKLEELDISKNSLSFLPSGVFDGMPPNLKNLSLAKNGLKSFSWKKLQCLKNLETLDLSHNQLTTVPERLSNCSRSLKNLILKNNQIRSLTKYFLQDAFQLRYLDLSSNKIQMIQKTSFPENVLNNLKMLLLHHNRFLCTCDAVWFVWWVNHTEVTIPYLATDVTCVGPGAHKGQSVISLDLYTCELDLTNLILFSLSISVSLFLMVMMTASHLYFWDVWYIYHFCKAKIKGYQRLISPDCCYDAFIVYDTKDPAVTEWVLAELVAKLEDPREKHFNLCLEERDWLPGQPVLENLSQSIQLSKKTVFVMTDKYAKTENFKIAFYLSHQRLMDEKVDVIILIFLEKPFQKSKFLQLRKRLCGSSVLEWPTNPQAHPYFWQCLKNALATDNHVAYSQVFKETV
- experiment description: TLR7 inhibition reporter assay (HEK-Blue cells, secreted embryonic alkaline phosphatase reporter)
- condition set: HEK-Blue cells overexpressing human TLR7, stimulated with gardiquimod 7.5 μM; read-out: TLR 7 IC50
One number for each entry, as −log10 of the molar value.

COc1ccc(-c2nc3cc(C4CCN(C5CCN(C6CC6)CC5)CC4)ccc3n2C(C)C)cc1OC
5.12

Could I get pIC50 for every one of these entries?
1. Cn1c(-c2ccc(S(C)(=O)=O)cc2)nc2cc(C3CCN(C4CC5CCC(C4)N5C4CCOCC4)CC3)c(F)cc21 (single isomer, unassigned) [Example 256]
2. COc1ccc(-c2nc3c(C)cc(C4CCN(C5CCN(C(C)C)CC5)CC4)cc3[nH]2)cc1OC
3. CC(C)CN1CCC(N2CCC(c3cc4nc(-c5ccc(S(C)(=O)=O)cc5)n(C)c4cc3F)CC2)CC1
4. COc1ccc(-c2nc3cc(C4CCN(C5CCN(C(C)C)CC5)CC4)ccc3n2C)cc1OC
5. Cc1cc(C2CCN(C3CC4CCC(C3)N4C3CCOCC3)CC2)cc2c1nc(-c1ccc(S(C)(=O)=O)cc1)n2C (single isomer, unassigned) [Example 160]

1. 4.75
2. 5.30
3. 5.18
4. 5.17
5. 4.63

====

- tested system: human TLR9 (Homo sapiens, UniProt Q9NR96)
- Construct: host or cells: HEK-Blue cells (HEK293-derived reporter line)
- Sequence (Q9NR96 26-1032): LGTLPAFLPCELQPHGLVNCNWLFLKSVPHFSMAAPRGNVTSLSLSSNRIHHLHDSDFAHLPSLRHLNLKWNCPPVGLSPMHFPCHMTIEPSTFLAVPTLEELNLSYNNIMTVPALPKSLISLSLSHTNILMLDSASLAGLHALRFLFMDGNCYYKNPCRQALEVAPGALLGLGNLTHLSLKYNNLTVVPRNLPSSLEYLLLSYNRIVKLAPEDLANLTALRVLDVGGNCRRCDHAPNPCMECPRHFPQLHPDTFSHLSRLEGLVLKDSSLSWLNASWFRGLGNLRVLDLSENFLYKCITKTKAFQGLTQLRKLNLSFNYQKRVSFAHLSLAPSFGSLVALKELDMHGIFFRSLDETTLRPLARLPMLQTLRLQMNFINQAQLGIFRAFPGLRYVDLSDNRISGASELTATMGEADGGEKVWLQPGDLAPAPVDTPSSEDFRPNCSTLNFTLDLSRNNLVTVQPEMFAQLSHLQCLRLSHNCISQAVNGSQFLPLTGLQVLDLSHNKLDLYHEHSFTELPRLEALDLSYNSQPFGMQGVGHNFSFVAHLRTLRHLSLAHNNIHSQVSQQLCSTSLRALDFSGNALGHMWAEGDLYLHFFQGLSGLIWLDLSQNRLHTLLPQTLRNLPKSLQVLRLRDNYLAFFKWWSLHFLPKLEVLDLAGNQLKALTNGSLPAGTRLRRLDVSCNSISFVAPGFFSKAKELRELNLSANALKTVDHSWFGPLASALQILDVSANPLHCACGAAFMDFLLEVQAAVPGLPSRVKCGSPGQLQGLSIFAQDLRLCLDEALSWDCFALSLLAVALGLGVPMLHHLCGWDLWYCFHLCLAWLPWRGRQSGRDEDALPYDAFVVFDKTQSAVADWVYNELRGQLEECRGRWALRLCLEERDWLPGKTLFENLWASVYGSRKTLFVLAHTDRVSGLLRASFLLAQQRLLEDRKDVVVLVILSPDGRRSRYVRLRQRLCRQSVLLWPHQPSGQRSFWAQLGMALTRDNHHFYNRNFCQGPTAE
- experiment description: TLR9 inhibition reporter assay (HEK-Blue cells, secreted embryonic alkaline phosphatase reporter)
- Format: cell-based
quantity kind: pIC50
Answers are plain numbers, as −log10 of the molar value.

Below, each entry is followed by its recorded pIC50 result.
COc1ccc(-c2nc3ccc(C4CCN(C5CCN(C6CC6)CC5)CC4)c(F)c3[nH]2)cc1OC [Example 175]
6.28
CC(C)CN1C2CCC1CC(N1CCC(c3cc4nc(-c5ccc(S(C)(=O)=O)cc5)n(C)c4cc3F)CC1)C2 (stereo not shown) [Example 248]
7.11
Cc1cc(C2CCN(C3CC4CCC(C3)N4CC3CCC3)CC2)cc2c1nc(-c1ccc(S(C)(=O)=O)cc1)n2C (single isomer, unassigned) [Example 156]
7.51
CC(C)CN1C2CCC1CC(N1CCC(c3cc4nc(-c5ccc(S(C)(=O)=O)cc5)n(C)c4cc3F)CC1)C2 (stereo not shown) [Example 247]
7.52

Could I get pIC50 for every one of these entries?
1. Cn1c(-c2ccc(S(C)(=O)=O)cc2)nc2c(F)c(C3CCN(C4CCN(C5COC5)CC4)CC3)ccc21 [Example 186]
2. Cc1cc(C2CCN(C3CC4(C3)CN(CC3CC3)C4)CC2)cc2c1nc(-c1ccc(S(C)(=O)=O)cc1)n2C [Example 142]
3. COc1ccc(-c2nc3c(C)cc(C4CCN(C5CC6CCC(C5)N6CC5CC5)CC4)cc3n2C)cc1OC (stereo not shown) [Example 149]

5.14
7.17
7.33

Data credit: patent US12492188B2
